Tested on: Canis familiaris
Procedure text: Percent change in mean arterial blood pressure (MAP) in anesthetized open chest dogs iv administration at 0.8750 mg/kg
Format: functional, Canis lupus familiaris
Measurement setup: dose 0.875 mg/kg

| Sample smiles | Assayed target | Change / % |
| --- | --- | --- |
| COC(=O)CCc1c(O)nc(C)c2c(OC)c(OC)c(OC)cc12 | Canis familiaris | -4 |
| COc1ccc2cc(O)nc(C)c2c1 | Canis familiaris | -18 |
| COc1cc2c(C)nc(O)c(Cl)c2cc1OC | Canis familiaris | 1 |
| COC(=O)CCc1c(O)ncc2cc(OC)c(OC)cc12 | Canis familiaris | -4 |
| CCc1nc(O)c(CCC(=O)OC)c2cc(OC)c(OC)cc12 | Canis familiaris | -3 |
| CCCCOc1cc2c(C)nc(O)cc2cc1OC | Canis familiaris | -18 |
| CCOc1cc2cc(O)nc(C)c2cc1OCC | Canis familiaris | -11 |
| CCCc1c(O)nc(C)c2cc(OC)c(OC)cc12 | Canis familiaris | 4 |

Where these numbers come from: ChEMBL document CHEMBL1124262
